Assay: Brain penetration
Type: in vivo
Details: brain; 4 h after oral treatment; read-out: Brain/plasma concentration ratio
endpoint label: Kp at 4 h

Memo: `COc1cc(C(=O)c2csc(Nc3ccc4[nH]ccc4c3)n2)cc(OC)c1OC` , reported Kp at 4 h: ~0.2

The measurements presented in this section are drawn from patent US20190389841A1.
